- Experimental System: hL-CPT1 (Homo sapiens)
- Construct: made in house; host or cells: Pichia pastoris strain X-33
- Sequence (P50416 whole entry): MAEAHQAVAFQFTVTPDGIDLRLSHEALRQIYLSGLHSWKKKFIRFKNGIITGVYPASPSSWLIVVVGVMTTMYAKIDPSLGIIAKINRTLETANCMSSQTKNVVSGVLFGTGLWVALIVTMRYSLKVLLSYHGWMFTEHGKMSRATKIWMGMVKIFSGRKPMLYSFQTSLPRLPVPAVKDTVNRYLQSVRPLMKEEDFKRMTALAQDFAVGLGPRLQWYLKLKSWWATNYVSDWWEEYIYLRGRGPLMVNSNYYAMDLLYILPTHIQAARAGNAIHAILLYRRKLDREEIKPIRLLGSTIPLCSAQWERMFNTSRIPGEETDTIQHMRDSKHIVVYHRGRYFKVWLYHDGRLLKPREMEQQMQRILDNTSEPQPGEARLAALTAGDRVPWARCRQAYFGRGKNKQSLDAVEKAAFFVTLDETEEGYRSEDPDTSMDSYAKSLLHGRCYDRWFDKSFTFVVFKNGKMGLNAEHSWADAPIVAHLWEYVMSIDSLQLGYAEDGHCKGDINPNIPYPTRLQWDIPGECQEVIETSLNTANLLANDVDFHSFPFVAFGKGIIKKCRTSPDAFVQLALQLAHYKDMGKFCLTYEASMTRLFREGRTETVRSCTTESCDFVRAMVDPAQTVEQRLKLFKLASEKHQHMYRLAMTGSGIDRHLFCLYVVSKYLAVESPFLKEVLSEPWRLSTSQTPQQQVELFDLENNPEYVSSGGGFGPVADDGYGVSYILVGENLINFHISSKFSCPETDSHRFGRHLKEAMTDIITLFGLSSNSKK
- Assay Comment: liver CPT1 inhibition, spectrophotometric DTNB (Ellman's reagent) assay
- Assay type: biochemical
- Condition Notes: human liver CPT1 expressed in P. pastoris, cell extract; carnitine 500 μM, palmitoyl-CoA 80 μM, DTNB 300 μM
- Method: The following tests were carried out in order to determine the activity of the compounds of the present invention. Background information on the performed assays can be found in: Jackson et al., 1999, Biochem. J. 341, 483-489 and Jackson et al., 2000, J. Biol. Chem. 275, 19560-19566. […] CPT activity was measured using a spectrophotometric assay using 5,5′-dithio-bis-(2-nitrobenzoic acid) (DTNB) also called Ellman's reagent. […]
pIC50: −log10 of the molar value.
Property: pIC50

>>> df
                                    compound  value_prefix  numeric_value
 0  CN(C)C[C@@H](CC(=O)O)NC(=O)CCCCCCCCCc1cccc2ccccc12 [Example 39]             <           5.00
 1  CN(C)C[C@@H](CC(=O)O)NC(=O)CCCCCCCOCc1cc(F)ccc1F [Example 2]             <           5.00
 2  CN(C)C[C@@H](CC(=O)O)NC(=O)CCCCCCCCCc1cncs1 [Example 44]             <           5.00
 3  CN(C)C[C@@H](CC(=O)O)NC(=O)CCCCCCCCCc1ccccc1F [Example 35]             =           5.44
 4  CN(C)C[C@@H](CC(=O)O)NC(=O)CCCCCCCCOc1ccc(F)c(F)c1F [Example 24]             =           5.27
 5  CN(C)C[C@@H](CC(=O)O)NC(=O)NCCCCCCCCCc1ccccc1 [Example 63]             =           5.54
 6  CN(C)C[C@@H](CC(=O)O)NC(=O)CCCCCCCCOc1ccccc1 [Example 31]             =           5.62
 7  CN(C)C[C@@H](CC(=O)O)NC(=O)CCCCCCCCCc1ccc(C(F)(F)F)cc1 [Example 40]             =           5.18
 8  Cc1cccc(C)c1CCCCCCCCCC(=O)N[C@H](CC(=O)O)CN(C)C [Example 37]             <           5.00
 9  CN(C)C[C@@H](CC(=O)O)NC(=O)CCCCCCCCOc1ccc(C(F)(F)F)cc1 [Example 27]             =           5.66
10  CN(C)C[C@@H](CC(=O)O)NC(=O)CCCCCCCOCc1cccc(F)c1 [Example 14]             <           5.00
11  CN(C)C[C@@H](CC(=O)O)NC(=O)CCCCCCCCOc1ccc(F)cc1 [Example 20]             =           6.00
12  CN(C)C[C@@H](CC(=O)O)NC(=O)CCCCCCCOCc1ccc(C(F)(F)F)c(F)c1 [Example 7]             =           5.22
13  CN(C)C[C@@H](CC(=O)O)NC(=O)CCCCCCCCCc1cccc(F)c1F [Example 42]             =           5.63
14  CN(C)C[C@@H](CC(=O)O)NC(=O)CCCCCCCCOc1cccc2ccccc12 [Example 29]             <           5.00
15  CN(C)C[C@@H](CC(=O)O)NC(=O)CCCCCCCCCCc1ccccc1 [Example 50]             <           5.00
16  CN(C)C[C@@H](CC(=O)O)NC(=O)CCCCCCCCCc1ccsc1 [Example 43]             =           5.14
17  COc1ccc(OCCCCCCCCC(=O)N[C@H](CC(=O)O)CN(C)C)cc1 [Example 28]             =           5.26
